Species on record: Rattus norvegicus
PROTOCOL: Open TG-GATES - Regimen: Daily Repeat
Type: toxicity, organism-based, Sprague-Dawley
Parameters: regimen Daily Repeat, gender Male, age 6 weeks
CONDITION LABEL: in vivo, po, 0 mg/kg, […], tissue Plasma, route gavage, dose level Control, time 14 day
MEASURE: K (meq/L)
Just the number in meq/L, nothing appended.

Some compounds with known K results, for comparison:
- CC(C)Cc1ccc(C(C)C(=O)O)cc1 (configuration not stated): 4.1
- O=C(O)COc1nn(Cc2ccccc2)c2ccccc12: 4.7
- CC(N)=O [ACETAMIDE]: 4.2
- CC(CCc1ccccc1)NCC(O)c1ccc(O)c(C(N)=O)c1 (configuration not stated): 3.7
- CC[C@@H](CO)NCCN[C@@H](CC)CO: 4
- CCN(CC)N=O: 4

Okay, now this compound:
Entry CC(=O)Nc1ccc2c(c1)Cc1ccccc1-2 has what K?
4.1

FYI, the data here is from ChEMBL document CHEMBL3885861.
